# Target system: Cholinesterase (Homo sapiens)
# Sequence (P06276 whole entry): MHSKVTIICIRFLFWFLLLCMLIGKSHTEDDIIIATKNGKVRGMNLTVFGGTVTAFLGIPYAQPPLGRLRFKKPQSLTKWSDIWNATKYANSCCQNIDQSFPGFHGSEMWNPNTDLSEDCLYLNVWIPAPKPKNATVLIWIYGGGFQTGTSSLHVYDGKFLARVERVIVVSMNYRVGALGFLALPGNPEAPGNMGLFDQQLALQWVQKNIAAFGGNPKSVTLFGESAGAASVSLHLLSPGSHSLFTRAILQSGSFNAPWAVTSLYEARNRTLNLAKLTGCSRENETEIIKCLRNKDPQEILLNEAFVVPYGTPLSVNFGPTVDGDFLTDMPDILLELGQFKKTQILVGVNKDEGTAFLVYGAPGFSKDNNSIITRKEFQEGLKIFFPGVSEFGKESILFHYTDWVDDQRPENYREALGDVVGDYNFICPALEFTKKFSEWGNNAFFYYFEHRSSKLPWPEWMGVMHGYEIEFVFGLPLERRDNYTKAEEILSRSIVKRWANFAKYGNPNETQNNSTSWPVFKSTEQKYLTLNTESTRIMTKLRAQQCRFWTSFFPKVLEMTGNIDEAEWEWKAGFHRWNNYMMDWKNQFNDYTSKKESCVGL
# Assay protocol: Inhibition of human serum BuChE using butyrylthiocholine iodide as substrate pretreated for 5 mins followed by substrate addition measured for 5 mins by UV-Vis spectrophotometric method
Below, each of the compounds is paired with its reported pIC50 value.
Reminder that pIC50 means the negative base-10 logarithm of the concentration expressed in mol/L.

Recorded result, O=C(CC[C@@H](NC(=O)c1ccccc1)C(=O)O)NCCC1CCN(Cc2ccccc2)CC1 , pIC50: 4.09

Recorded result, CCOC(=O)[C@@H](CCC(=O)NCCC1CCN(Cc2ccccc2)CC1)NC(=O)c1ccccc1 , pIC50: 6.41

Recorded result, CCOC(=O)[C@H](CCC(=O)NCCC1CCN(Cc2ccccc2)CC1)NC(=O)c1ccccc1 , pIC50: 5.89

Recorded result, CCCCCCOC(=O)[C@H](CCC(=O)NCCC1CCN(Cc2ccccc2)CC1)NC(=O)c1c[nH]c2ccccc12 , pIC50: 5.73

====

# Target system: UniProtKB P22303
# Sequence (P22303 whole entry): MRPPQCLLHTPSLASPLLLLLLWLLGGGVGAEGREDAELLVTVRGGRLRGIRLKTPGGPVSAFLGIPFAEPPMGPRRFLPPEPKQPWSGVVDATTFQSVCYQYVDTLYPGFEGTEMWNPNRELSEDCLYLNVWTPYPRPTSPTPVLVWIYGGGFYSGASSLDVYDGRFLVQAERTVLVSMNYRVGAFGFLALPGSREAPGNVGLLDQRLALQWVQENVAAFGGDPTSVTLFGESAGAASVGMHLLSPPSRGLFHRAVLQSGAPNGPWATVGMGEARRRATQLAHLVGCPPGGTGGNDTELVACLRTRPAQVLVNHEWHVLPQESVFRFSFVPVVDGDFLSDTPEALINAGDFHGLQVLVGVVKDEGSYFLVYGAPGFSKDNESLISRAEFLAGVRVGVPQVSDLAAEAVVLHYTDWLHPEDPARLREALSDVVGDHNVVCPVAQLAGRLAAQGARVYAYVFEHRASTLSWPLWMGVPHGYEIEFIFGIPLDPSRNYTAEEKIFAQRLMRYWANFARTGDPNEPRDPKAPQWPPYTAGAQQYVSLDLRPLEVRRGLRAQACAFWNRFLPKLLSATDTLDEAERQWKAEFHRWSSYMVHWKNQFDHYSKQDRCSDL
# Assay protocol: Inhibition of recombinant human AChE expressed in HEK293 cells using acetylthiocholine iodide as substrate pretreated for 5 mins followed by substrate addition measured for 5 mins by UV-Vis spectrophotometric method
Metric name: IC50 (µM)
Just the number in µM, nothing appended.

Some solved cases for reference:
Recorded result, CCOC(=O)[C@H](CCC(=O)NCCC1CCN(Cc2ccccc2)CC1)NC(=O)c1ccccc1 , IC50: 0.85

Recorded result, O=C(CC[C@H](NC(=O)c1ccccc1)C(=O)O)NCCC1CCN(Cc2ccccc2)CC1 , IC50: 0.76

Recorded result, CCOC(=O)CC[C@H](NC(=O)OCc1ccccc1)C(=O)NCCC1CCN(Cc2ccccc2)CC1 , IC50: 4.99

Recorded result, CCOC(=O)[C@H](CCC(=O)NCCC1CCN(Cc2ccccc2)CC1)NC(=O)c1ccc2cc(OC)ccc2c1 , IC50: 0.89

Recorded result, CCCCCCOC(=O)[C@@H](CCC(=O)NCCC1CCN(Cc2ccccc2)CC1)NC(=O)c1ccccc1 , IC50: 0.89

Recorded result, O=C(CC[C@@H](NC(=O)c1ccccc1)C(=O)O)NCCC1CCN(Cc2ccccc2)CC1 , IC50: 20

Recorded result, CCOC(=O)CC[C@@H](NC(=O)OCc1ccccc1)C(=O)NCCC1CCN(Cc2ccccc2)CC1 , IC50: 3

Continuing:
Recorded result, COc1ccc2cc(C(=O)N[C@@H](CCC(=O)NCCC3CCN(Cc4ccccc4)CC3)C(=O)O)ccc2c1 , IC50: 15.2

====

# Assay protocol: physchem
# Measurement setup: PAMPA, pH 7.4
# Description: Permeability of the compound at pH 7.4 at 1 mg/ml after 4 hrs by PAMPA-BBB assay
Metric name: Papp at 4 h, 1 mg/ml (×10⁻⁶ cm/s)
Just the number in ×10⁻⁶ cm/s, nothing appended.

Some solved cases for reference:
Recorded result, CCOC(=O)[C@@H](CCC(=O)NCCC1CCN(Cc2ccccc2)CC1)NC(=O)c1ccccc1 , Papp at 4 h, 1 mg/ml: 6.6

Recorded result, O=C(CC[C@H](NC(=O)c1ccccc1)C(=O)O)NCCC1CCN(Cc2ccccc2)CC1 , Papp at 4 h, 1 mg/ml: 3.5

Recorded result, O=C(CC[C@@H](NC(=O)c1ccccc1)C(=O)O)NCCC1CCN(Cc2ccccc2)CC1 , Papp at 4 h, 1 mg/ml: 4.6

Now look at this one.
Recorded result, CCOC(=O)CC[C@H](NC(=O)OCc1ccccc1)C(=O)NCCC1CCN(Cc2ccccc2)CC1 , Papp at 4 h, 1 mg/ml: 21
